Molecular target: DPP1 in HL-60 cells (Homo sapiens, UniProt P53634)
Sequence (P53634 25-463): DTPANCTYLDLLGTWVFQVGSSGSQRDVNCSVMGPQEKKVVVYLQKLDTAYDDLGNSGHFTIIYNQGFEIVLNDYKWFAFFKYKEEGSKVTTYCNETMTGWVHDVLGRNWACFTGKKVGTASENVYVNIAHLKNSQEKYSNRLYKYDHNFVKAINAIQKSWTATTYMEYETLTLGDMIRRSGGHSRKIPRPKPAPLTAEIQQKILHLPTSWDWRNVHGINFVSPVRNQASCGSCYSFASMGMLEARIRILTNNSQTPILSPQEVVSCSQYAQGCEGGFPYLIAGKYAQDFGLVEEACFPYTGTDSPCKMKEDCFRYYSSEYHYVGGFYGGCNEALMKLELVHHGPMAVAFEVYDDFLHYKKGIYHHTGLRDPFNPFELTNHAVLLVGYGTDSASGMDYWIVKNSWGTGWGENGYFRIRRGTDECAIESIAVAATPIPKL
Assay: DPP1 Cell IC50 assay
Assay type: cell-based
Design: host or cells: HL-60 cells
Conditions: 60 min pre-incubation, H-Gly-Phe-AFC substrate, average of n runs, read-out: Avg. IC50 (DPP1 Cell IC50 value ranges)
pIC50: −log10 of the molar value.
Recorded pIC50 by entry
value_type: pIC50

[[record]]
compound = "CO[C@@H]1CCNC[C@@H](C(=O)N[C@H](C#N)Cc2ncc(-c3ccc4c(F)nn(C)c4c3)s2)OC1"
test_system = "DPP1 in HL-60 cells (Homo sapiens, UniProt P53634)"
value_type = "pIC50"
measured = "< 8.60"

[[record]]
compound = "CO[C@@H]1CCNC[C@@H](C(=O)N[C@H](C#N)Cc2cc3cc(-c4cc5c(C)nc(C)cn5c4)ccc3s2)OC1 (single isomer, unassigned)"
test_system = "DPP1 in HL-60 cells (Homo sapiens, UniProt P53634)"
value_type = "pIC50"
measured = "8.60 to 9.00"

[[record]]
compound = "CN1CCN(S(=O)(=O)c2ccc(-c3ccc(C[C@@H](C#N)NC(=O)[C@@H]4CNCCCO4)cc3)cc2)CC1"
test_system = "DPP1 in HL-60 cells (Homo sapiens, UniProt P53634)"
value_type = "pIC50"
measured = "< 8.60"

[[record]]
compound = "N#Cc1ccc(-c2ccc(C[C@@H](C#N)NC(=O)[C@@H]3CNCCCO3)cc2)cc1C(F)(F)F"
test_system = "DPP1 in HL-60 cells (Homo sapiens, UniProt P53634)"
value_type = "pIC50"
measured = "< 8.60"

[[record]]
compound = "CO[C@H]1CCO[C@H](C(=O)N[C@H](C#N)Cc2ccc(-c3ccc4c(F)nn(C)c4c3)cc2F)CNC1"
test_system = "DPP1 in HL-60 cells (Homo sapiens, UniProt P53634)"
value_type = "pIC50"
measured = "8.60 to 9.00"

[[record]]
compound = "Cn1c(=O)oc2ccc3c(c21)COc1cc(C[C@@H](C#N)NC(=O)[C@@H]2CNCCCO2)c(F)cc1-3"
test_system = "DPP1 in HL-60 cells (Homo sapiens, UniProt P53634)"
value_type = "pIC50"
measured = "8.60 to 9.00"

[[record]]
compound = "Cc1nc(C)c2cc(-c3ccc(C[C@@H](C#N)NC(=O)[C@@H]4CNCCCO4)cc3)cn2c1C"
test_system = "DPP1 in HL-60 cells (Homo sapiens, UniProt P53634)"
value_type = "pIC50"
measured = "< 8.60"

[[record]]
compound = "CO[C@@H]1CCNC[C@@H](C(=O)N[C@H](C#N)Cc2ccc(-c3ccc(C#N)cc3)cc2F)OC1"
test_system = "DPP1 in HL-60 cells (Homo sapiens, UniProt P53634)"
value_type = "pIC50"
measured = "> 9.00"

[[record]]
compound = "N#CC(Cc1cc2c(cc1F)-c1cc(C3COC3)c(F)cc1CO2)NC(=O)[C@@H]1CNCCCCO1 (mixture of isomers)"
test_system = "DPP1 in HL-60 cells (Homo sapiens, UniProt P53634)"
value_type = "pIC50"
measured = "8.60 to 9.00"

[[record]]
compound = "Cc1cc2cc(-c3ccc(C[C@@H](C#N)NC(=O)[C@@H]4CNCCCO4)cc3)cn2c(C)n1"
test_system = "DPP1 in HL-60 cells (Homo sapiens, UniProt P53634)"
value_type = "pIC50"
measured = "< 8.60"

[[record]]
compound = "Cn1nc(F)c2ccc(-c3ccc(C[C@@H](C#N)NC(=O)[C@@H]4CNCC[C@@H](F)CO4)cc3)cc21"
test_system = "DPP1 in HL-60 cells (Homo sapiens, UniProt P53634)"
value_type = "pIC50"
measured = "< 8.60"

[[record]]
compound = "N#C[C@H](Cc1ccc(-c2ccc3c(c2)C2(CCN(C4COC4)CC2)COC3)cc1)NC(=O)[C@@H]1CNCCCO1"
test_system = "DPP1 in HL-60 cells (Homo sapiens, UniProt P53634)"
value_type = "pIC50"
measured = "< 8.60"

[[record]]
compound = "N#C[C@H](Cc1ccc(-c2cnn([C@@H]3CCOC3)c2)cc1)NC(=O)[C@@H]1CNCCCO1"
test_system = "DPP1 in HL-60 cells (Homo sapiens, UniProt P53634)"
value_type = "pIC50"
measured = "< 8.60"

[[record]]
compound = "CCN1C(=O)Cc2ccc(-c3ccc(C[C@@H](C#N)NC(=O)[C@@H]4CNCCCO4)cc3)cc21"
test_system = "DPP1 in HL-60 cells (Homo sapiens, UniProt P53634)"
value_type = "pIC50"
measured = "< 8.60"

[[record]]
compound = "CO[C@H]1CCO[C@H](C(=O)N[C@H](C#N)Cc2cc3cc(-c4cc5c(C)nc(C)cn5c4)ccc3s2)CNC1 (single isomer, unassigned)"
test_system = "DPP1 in HL-60 cells (Homo sapiens, UniProt P53634)"
value_type = "pIC50"
measured = "< 8.60"

[[record]]
compound = "CN1CC[C@]2(C1)C(=O)OCc1ccc(-c3ccc(C[C@@H](C#N)NC(=O)[C@@H]4CNCCCO4)cc3)cc12"
test_system = "DPP1 in HL-60 cells (Homo sapiens, UniProt P53634)"
value_type = "pIC50"
measured = "< 8.60"


====

Target: human DPP1 enzyme (Homo sapiens)
Sequence (P53634 25-134 limits assumed): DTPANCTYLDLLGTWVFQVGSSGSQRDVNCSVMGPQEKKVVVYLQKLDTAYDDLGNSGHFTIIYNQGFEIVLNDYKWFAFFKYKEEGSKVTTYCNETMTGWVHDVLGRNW
Sequence (P53634 231-394 limits assumed): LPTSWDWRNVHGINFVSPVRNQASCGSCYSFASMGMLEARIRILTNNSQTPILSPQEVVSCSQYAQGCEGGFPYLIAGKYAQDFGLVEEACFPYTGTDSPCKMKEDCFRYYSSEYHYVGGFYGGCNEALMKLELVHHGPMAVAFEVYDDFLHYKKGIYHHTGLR
Sequence (P53634 395-463 limits assumed): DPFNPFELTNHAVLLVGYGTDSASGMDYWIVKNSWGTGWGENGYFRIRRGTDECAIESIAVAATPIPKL
Test: Human DPP1 Enzyme IC50 Assay
Format: biochemical
Design: was first proteolytically processed into its mature form using recombinant human cathepsin L; purchased R&D Systems
pIC50: −log10 of the molar value.
value_type: pIC50

[[record]]
compound = "N#Cc1ccc2c(c1)COc1cc(C[C@@H](C#N)NC(=O)[C@@H]3CNCCCO3)c(F)cc1-2"
measured = "7.82 to 8.30"

[[record]]
compound = "N#Cc1ccc2c(c1)-c1cc(F)c(CC(C#N)NC(=O)[C@@H]3CNCCCO3)cc1OC2 (stereo partly drawn)"
measured = "< 7.82"

[[record]]
compound = "N#C[C@H](Cc1cc2c(cc1F)-c1ccc(F)cc1CO2)NC(=O)[C@@H]1CNCCCO1"
measured = "< 7.82"


====

Molecular target: human DPP1 enzyme (Homo sapiens)
Experiment: Human DPP1 Enzyme IC50 Assay
Assay type: biochemical
Parameters: was first proteolytically processed into its mature form using recombinant human cathepsin L; purchased R&D Systems
Conditions: activated recombinant human DPP1, 400 μM H-Gly-Arg-AMC, 10 minutes pre-incubation at 37° C., pH 6.0; average of n runs; read-out: Avg. IC50 (Human DPP1 enzyme IC50 value ranges)
pIC50: −log10 of the molar value.
Recorded pIC50 by entry
value_type: pIC50

[[record]]
compound = "Cn1c(=O)oc2cc3c(cc21)-c1cc(F)c(CC(C#N)NC(=O)[C@@H]2CNCCCO2)cc1OC3 (some centres unmarked)"
measured = "> 8.30"

[[record]]
compound = "CO[C@@H]1CCNC[C@@H](C(=O)NC(C#N)Cc2cnc(-c3ccc4c(n3)CCCN4)s2)OC1 (some centres unmarked)"
measured = "< 7.82"

[[record]]
compound = "CO[C@H]1CCO[C@H](C(=O)N[C@H](C#N)Cc2ccc(-c3ccc4cnn(C5CCN(C6COC6)CC5)c4c3)cc2F)CNC1"
measured = "7.82 to 8.30"

[[record]]
compound = "COC1CO[C@H](C(=O)N[C@H](C#N)Cc2ccc(-c3ccc4c(c3)C3(CC4)CCN(C)CC3)cc2F)CNC1C (some centres unmarked)"
measured = "> 8.30"

[[record]]
compound = "CO[C@H]1CCO[C@H](C(=O)NC(C#N)Cc2cc3c(cc2F)-c2ccc(C#N)cc2CO3)CNC1 (single isomer, unassigned)"
measured = "< 7.82"


====

Recorded IC50 by entry
Target: DPP1 in HL-60 cells (Homo sapiens)
Test: DPP1 Cell IC50 assay
Format: cell-based
Parameters: host or cells: HL-60 cells
Conditions: 60 min pre-incubation, H-Gly-Phe-AFC substrate, average of n runs, read-out: Avg. IC50 (DPP1 Cell IC50 value ranges)
value_type: IC50

[[record]]
molecule = "N#Cc1ccc(-c2ccc(C[C@@H](C#N)NC(=O)[C@@H]3CNCCCO3)cc2)cc1C1CC1 [Compound 8]"
measured = "> 2.5 nM"

[[record]]
molecule = "N#C[C@H](Cc1cc2c(cc1F)-c1cc3c(cc1CO2)COC31CCN(C2COC2)CC1)NC(=O)[C@@H]1CNCCCO1 [Compound C31]"
measured = "> 2.5 nM"

[[record]]
molecule = "C[C@@H]1NC[C@@H](C(=O)N[C@H](C#N)Cc2ccc(-c3ccc4c(n3)CCCN4)cc2)OC[C@@H]1O [Compound A105]"
measured = "> 2.5 nM"

[[record]]
molecule = "COC1CNC[C@@H](C(=O)N[C@H](C#N)Cc2ccc(-c3ccc4c(F)nn(C)c4c3)cc2F)OC1 (some centres unmarked) [Compound A164]"
measured = "< 1 nM"

[[record]]
molecule = "N#C[C@H](Cc1ccc(-c2cnc3c(n2)CCCC3)cc1)NC(=O)[C@@H]1CNCCCO1 [Compound A11]"
measured = "> 2.5 nM"

